# Tested on: IGROV-1
# ASSAY_NAME: NCI tumour cell line growth inhibition, 48 h
Screen size: about 57,000 sequences; about 3,700 (6.5%) were called active. These entries were drawn from the full list. Entries with a potency or affinity are not part of this list.
Kindly supply the reported GI50 values for the records listed here.
Write the value in µM as a bare number.

Memo: [Bis(aminomethyl)tetramethylenesilane]dichloropaltinum(II), CHEMBL2146205 , reported GI50: 36.8

Memo: [Bis(aminomethyl)pentamethylenesilane]dichloropaltinum(II), CHEMBL2146202 , reported GI50: 41.9

Memo: CISPLATIN, CHEMBL11359 , reported GI50: 2.02

Memo: [Bis(aminomethyl)tetramethylenesilane]tetrachloropaltinum(IV), CHEMBL2146189 , reported GI50: 6.1

Data provenance: ChEMBL document CHEMBL1201862
